// IC50 lookup, one value per entry
Molecular target: OAT2 (Homo sapiens, UniProt Q9Y694)
Sequence (Q9Y694 1-546 isoform Q9Y694-2): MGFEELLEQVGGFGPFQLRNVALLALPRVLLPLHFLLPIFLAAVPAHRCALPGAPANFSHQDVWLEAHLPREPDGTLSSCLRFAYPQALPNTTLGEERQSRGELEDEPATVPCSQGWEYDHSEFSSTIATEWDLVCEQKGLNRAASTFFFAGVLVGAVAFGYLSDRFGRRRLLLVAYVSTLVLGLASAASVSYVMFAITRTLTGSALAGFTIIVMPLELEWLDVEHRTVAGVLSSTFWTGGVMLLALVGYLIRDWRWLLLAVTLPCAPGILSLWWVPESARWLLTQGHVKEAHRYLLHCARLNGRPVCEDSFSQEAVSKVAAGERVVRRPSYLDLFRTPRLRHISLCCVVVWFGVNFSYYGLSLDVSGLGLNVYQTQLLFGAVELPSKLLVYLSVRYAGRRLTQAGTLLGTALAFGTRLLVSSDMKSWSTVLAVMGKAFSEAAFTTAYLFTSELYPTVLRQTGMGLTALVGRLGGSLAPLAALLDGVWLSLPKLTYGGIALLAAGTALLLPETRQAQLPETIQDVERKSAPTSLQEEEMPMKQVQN
Type: in vitro ADME
Conditions: read-out: IC50, OAT2 [prostaglandin F2α]; mean ± SD (n = 3)
Metric: IC50 (µM)

COc1cc(/C=C/C(=O)O)ccc1O
12
CCCCC1(O)OC(=O)C2=C1CCC=C2 (centres unmarked) [X7, senkyunolide G]
51

====

The following compounds are shown together with reported inhibition at 1000 μmol/L values.
Molecular target: UGT2B15 (Homo sapiens)
Sequence (P54855 24-530): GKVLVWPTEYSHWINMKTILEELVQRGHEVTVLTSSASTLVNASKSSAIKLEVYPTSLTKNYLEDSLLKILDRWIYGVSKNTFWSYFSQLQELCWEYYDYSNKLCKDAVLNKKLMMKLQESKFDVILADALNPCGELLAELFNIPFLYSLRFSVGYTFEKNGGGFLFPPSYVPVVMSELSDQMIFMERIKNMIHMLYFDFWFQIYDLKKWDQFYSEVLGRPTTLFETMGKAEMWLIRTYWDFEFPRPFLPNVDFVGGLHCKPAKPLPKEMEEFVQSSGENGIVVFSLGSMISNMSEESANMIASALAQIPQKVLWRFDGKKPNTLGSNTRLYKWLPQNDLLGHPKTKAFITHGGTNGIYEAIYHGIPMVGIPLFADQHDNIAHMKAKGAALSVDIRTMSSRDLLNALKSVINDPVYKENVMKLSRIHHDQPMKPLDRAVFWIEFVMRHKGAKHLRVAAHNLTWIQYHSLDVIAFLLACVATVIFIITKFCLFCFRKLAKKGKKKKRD
Assay type: in vitro ADME
Settings: human, cDNA-expressed UGT2B15
Metric: inhibition at 1000 μmol/L

Cc1onc(-c2c(F)cccc2Cl)c1C(=O)N[C@@H]1C(=O)N2[C@@H]1SC(C)(C)[C@@H]2C(=O)O
60 to 88%
CCN1CCN(C(=O)N[C@@H](C(=O)N[C@@H]2C(=O)N3C(C(=O)O)=C(CSc4nnnn4C)CS[C@H]23)c2ccc(O)cc2)C(=O)C1=O
60 to 88%
C[C@@H](c1ncncc1F)[C@](O)(Cn1cncn1)c1ccc(F)cc1F
≥ 90%
CO[C@@]1(NC(=O)Cc2cccs2)C(=O)N2C(C(=O)O)=C(COC(N)=O)CS[C@@H]21
≥ 90%

====

Molecular target: UGT1A6 (Homo sapiens)
Sequence (P19224 27-532): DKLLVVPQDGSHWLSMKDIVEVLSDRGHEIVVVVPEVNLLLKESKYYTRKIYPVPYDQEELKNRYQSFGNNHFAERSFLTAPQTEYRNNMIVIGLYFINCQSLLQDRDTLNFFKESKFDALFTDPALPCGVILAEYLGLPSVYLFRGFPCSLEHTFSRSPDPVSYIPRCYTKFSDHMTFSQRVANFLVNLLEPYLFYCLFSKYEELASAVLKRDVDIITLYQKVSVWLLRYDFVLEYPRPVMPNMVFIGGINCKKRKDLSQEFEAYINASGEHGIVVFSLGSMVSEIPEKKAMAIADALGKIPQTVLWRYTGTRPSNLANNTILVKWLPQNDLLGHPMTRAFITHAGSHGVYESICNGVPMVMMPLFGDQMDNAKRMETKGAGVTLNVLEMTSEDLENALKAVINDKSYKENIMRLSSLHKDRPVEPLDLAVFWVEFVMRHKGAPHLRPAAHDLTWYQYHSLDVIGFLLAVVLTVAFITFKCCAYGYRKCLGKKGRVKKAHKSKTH
Assay: UGT1A6 inhibition by XueBiJing compounds, cDNA-expressed enzyme [4-MU→4-MUG]
Format: in vitro ADME
Details: human, cDNA-expressed UGT1A6, probe 4-MU (100 μmol/L), 4-MUG formed
Metric: inhibition at 100 μmol/L

O=C(/C=C/c1ccc(O)c2c1[C@H](C(=O)O[C@H](Cc1ccc(O)c(O)c1)C(=O)O)[C@@H](c1ccc(O)c(O)c1)O2)O[C@H](Cc1ccc(O)c(O)c1)C(=O)O
> 90%

====

Item-by-item account of pIC50
Target: OAT1 (Homo sapiens)
Sequence (Q4U2R8 whole entry): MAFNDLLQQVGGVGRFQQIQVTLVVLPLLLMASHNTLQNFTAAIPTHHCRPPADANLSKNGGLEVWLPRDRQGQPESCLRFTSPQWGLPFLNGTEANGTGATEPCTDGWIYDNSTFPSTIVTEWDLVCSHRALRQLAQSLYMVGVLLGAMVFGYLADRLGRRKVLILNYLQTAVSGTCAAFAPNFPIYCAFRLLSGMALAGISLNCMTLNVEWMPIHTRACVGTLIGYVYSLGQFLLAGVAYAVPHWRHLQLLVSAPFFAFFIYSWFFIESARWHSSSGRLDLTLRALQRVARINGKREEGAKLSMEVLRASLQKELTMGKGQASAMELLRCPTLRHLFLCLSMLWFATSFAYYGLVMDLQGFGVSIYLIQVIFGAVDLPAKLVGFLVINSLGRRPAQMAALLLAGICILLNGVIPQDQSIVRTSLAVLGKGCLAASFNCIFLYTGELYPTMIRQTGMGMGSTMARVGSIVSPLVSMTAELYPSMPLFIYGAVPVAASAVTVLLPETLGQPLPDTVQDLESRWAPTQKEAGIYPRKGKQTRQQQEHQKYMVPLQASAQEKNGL
Experiment: OAT1 inhibition by XueBiJing compounds, transfected HEK293 cells [PAH]
Assay type: in vitro ADME
Conditions: read-out: IC50, OAT1 [PAH]; mean ± SD (n = 3)
pIC50: −log10 of the molar value.
Metric: pIC50

COc1cc(CC(O)C(=O)O)ccc1O (stereo not shown)
3.97
CCCCC1(O)OC(=O)C2=C1CCC=C2 (stereo not shown) [X7, senkyunolide G]
4.96
COc1cc(/C=C/C(=O)O)ccc1O
5.70
O=C(O)C(O)Cc1ccc(O)c(O)c1 (stereo not shown)
4.11

====

Biological target: OATP1B3 (Homo sapiens)
Sequence (Q9NPD5 whole entry): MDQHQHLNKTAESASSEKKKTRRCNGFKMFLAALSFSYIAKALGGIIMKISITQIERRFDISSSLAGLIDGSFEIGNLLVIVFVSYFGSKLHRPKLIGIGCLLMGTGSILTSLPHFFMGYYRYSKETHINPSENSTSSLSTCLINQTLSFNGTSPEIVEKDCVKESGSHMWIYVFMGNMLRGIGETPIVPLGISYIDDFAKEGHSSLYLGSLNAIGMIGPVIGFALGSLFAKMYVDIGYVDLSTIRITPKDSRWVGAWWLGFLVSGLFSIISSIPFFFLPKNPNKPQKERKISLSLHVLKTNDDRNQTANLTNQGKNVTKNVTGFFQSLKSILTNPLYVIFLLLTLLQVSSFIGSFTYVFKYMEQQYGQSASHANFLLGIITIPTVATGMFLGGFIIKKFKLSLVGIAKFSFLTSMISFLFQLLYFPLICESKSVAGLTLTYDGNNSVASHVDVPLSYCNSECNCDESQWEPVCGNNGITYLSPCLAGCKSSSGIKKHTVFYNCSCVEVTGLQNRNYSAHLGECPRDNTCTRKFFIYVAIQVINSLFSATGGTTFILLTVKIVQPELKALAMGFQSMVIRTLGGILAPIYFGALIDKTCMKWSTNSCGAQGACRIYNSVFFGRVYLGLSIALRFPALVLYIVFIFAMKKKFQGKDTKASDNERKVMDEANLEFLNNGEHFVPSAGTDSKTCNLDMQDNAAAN
Conditions: antibiotic as perpetrator, salvianolic acid B (X10) as victim; (Cmax × fu-p × R)/IC50
Listing of recorded Inhibition DDI index, OATP1B3 by entry.
Metric: Inhibition DDI index, OATP1B3

CO/N=C(\C(=O)N[C@@H]1C(=O)N2C(C(=O)O)=C(COC(C)=O)CS[C@H]12)c1csc(N)n1 [A9, cefotaxime]
1.81–2.14
CC[C@H](C)C[C@H](C)CCCCCCCCC(=O)N[C@H]1C[C@@H](O)[C@@H](NCCN)NC(=O)[C@@H]2[C@@H](O)CCN2C(=O)[C@H]([C@H](O)CCN)NC(=O)[C@H]([C@H](O)[C@@H](O)c2ccc(O)cc2)NC(=O)[C@@H]2C[C@@H](O)CN2C(=O)[C@H]([C@@H](C)O)NC1=O [A41, caspofungin]
0.35

====

Target: UGT2B15 (Homo sapiens, UniProt P54855)
Type: in vitro ADME
Settings: antibiotic as perpetrator, senkyunolide I (X5) as victim; (Cmax × fu-p × R)/IC50
Metric: Inhibition DDI index, UGT2B15

CCN1CCN(C(=O)N[C@@H](C(=O)N[C@@H]2C(=O)N3[C@@H]2SC(C)(C)[C@@H]3C(=O)O)c2ccccc2)C(=O)C1=O [A13, piperacillin]
0.56
CCN1CCN(C(=O)N[C@@H](C(=O)N[C@@H]2C(=O)N3C(C(=O)O)=C(CSc4nnnn4C)CS[C@H]23)c2ccc(O)cc2)C(=O)C1=O [A8, cefoperazone]
0.12
CO[C@@]1(NC(=O)Cc2cccs2)C(=O)N2C(C(=O)O)=C(COC(N)=O)CS[C@@H]21 [A20, cefoxitin]
1.28
C[C@@H](c1ncncc1F)[C@](O)(Cn1cncn1)c1ccc(F)cc1F [A45, voriconazole]
0.75

====

Tested on: ALDH
Assay type: in vitro ADME
Conditions: human, pooled human liver cytosol
IC50 listing for selected molecules.
Metric: IC50 (µM)

CO[C@@]1(NC(=O)Cc2cccs2)C(=O)N2C(C(=O)O)=C(COC(N)=O)CS[C@@H]21
983
CC1(C)S[C@@H]2[C@H](NC(=O)[C@H](N)c3ccccc3)C(=O)N2[C@H]1C(=O)O
2080
C[C@@H]1[C@H](O)[C@@H](C)/C=C/C=C/C=C/C=C/C=C/C=C/C=C/[C@H](O[C@@H]2O[C@H](C)[C@@H](O)[C@H](N)[C@@H]2O)C[C@@H]2O[C@](O)(C[C@@H](O)C[C@@H](O)[C@H](O)CC[C@@H](O)C[C@@H](O)CC(=O)O[C@H]1C)C[C@H](O)[C@H]2C(=O)O
87
Cc1onc(-c2ccccc2)c1C(=O)N[C@@H]1C(=O)N2[C@@H]1SC(C)(C)[C@@H]2C(=O)O
465
Cc1onc(-c2c(F)cccc2Cl)c1C(=O)N[C@@H]1C(=O)N2[C@@H]1SC(C)(C)[C@@H]2C(=O)O
45
C[C@@H](O)[C@H]1C(=O)N2C(C(=O)O)=C(S[C@@H]3CN[C@H](C(=O)N(C)C)C3)[C@H](C)[C@H]12
164

====

Biological target: UGT1A1 (Homo sapiens, UniProt P22309)
Sequence (P22309 26-533): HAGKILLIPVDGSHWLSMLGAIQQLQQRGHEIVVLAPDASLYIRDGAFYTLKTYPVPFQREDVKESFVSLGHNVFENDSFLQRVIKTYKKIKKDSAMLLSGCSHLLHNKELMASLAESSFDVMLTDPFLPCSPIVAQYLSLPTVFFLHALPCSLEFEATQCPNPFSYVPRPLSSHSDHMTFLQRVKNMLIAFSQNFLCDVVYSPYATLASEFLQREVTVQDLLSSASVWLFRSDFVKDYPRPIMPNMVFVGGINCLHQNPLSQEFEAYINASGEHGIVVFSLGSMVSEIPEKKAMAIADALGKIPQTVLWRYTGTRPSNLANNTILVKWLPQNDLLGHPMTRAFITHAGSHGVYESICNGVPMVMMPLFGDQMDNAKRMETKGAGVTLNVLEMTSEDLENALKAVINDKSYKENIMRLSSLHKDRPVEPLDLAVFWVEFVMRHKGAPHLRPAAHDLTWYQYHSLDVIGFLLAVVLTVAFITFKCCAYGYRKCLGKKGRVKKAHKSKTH
Assay: UGT1A1 inhibition by XueBiJing compounds, cDNA-expressed enzyme [E2→E23βG]
Format: in vitro ADME
Conditions: human, cDNA-expressed UGT1A1, probe E2 (20 μmol/L), E23βG formed
Metric: inhibition at 100 μmol/L

O=C(/C=C/c1ccc(O)c2c1[C@H](C(=O)O[C@H](Cc1ccc(O)c(O)c1)C(=O)O)[C@@H](c1ccc(O)c(O)c1)O2)O[C@H](Cc1ccc(O)c(O)c1)C(=O)O
> 90%

Origin of the recorded values: paper PMC6804443
